Across several publications, the following Ki results were reported for Tissue-type plasminogen activator (Homo sapiens).
QUANTITY NAME: Ki (µM)

{"COMPOUND": "CC(C)CC1NCCc2ccc(NC(=O)c3ccc4cc(C(=N)N)ccc4c3)cc21 (stereo not given)", "OPERATOR": ">", "NUMBER": 50}
{"COMPOUND": "CCOC(=O)C1(NS(=O)(=O)c2ccc3c(Cl)cnc(N=C(N)N)c3c2)CCCC1", "OPERATOR": "=", "NUMBER": 23}
{"COMPOUND": "Nc1noc2ccc(-n3nc(C(F)(F)F)c4c3C(=O)N(c3ccc(-c5ccccc5CN5CC[C@@H](O)C5)cc3)CN4)cc12", "OPERATOR": ">", "NUMBER": 33}
{"COMPOUND": "CC1CNc2c(cccc2S(=O)(=O)N[C@@H](CCCNC(=N)N)C(=O)N2CC[C@@H](C)C[C@@H]2C(=O)O)C1 (stereo not given in full)", "OPERATOR": "=", "NUMBER": 87.8}
{"COMPOUND": "N=C(N)c1ccc2cc(C3CC3c3ccccc3)ccc2c1 (stereo not given)", "OPERATOR": "=", "NUMBER": 69.1}

* * *

Across several publications, the following pKi results were reported for Tissue-type plasminogen activator (Homo sapiens, UniProt P00750).
pKi: −log10 of the molar value.

{"MOLECULE": "NCc1ccc(Cl)cc1CNC(=O)[C@@H]1CCCN1C(=O)C1(O)c2ccccc2-c2cnccc21 (stereo in doubt; form 2)", "OPERATOR": "<", "pKi": 4.00}
{"MOLECULE": "CC(C)Oc1cccc(NC(=O)c2ccc3cc(C(=N)N)ccc3c2)c1", "OPERATOR": "=", "pKi": 5.63}
{"MOLECULE": "COC(=O)C(Cc1cccc(C(N)N)c1)NC(=O)CNS(=O)(=O)c1ccc(C)cc1 (centres undefined)", "OPERATOR": "=", "pKi": 4.64}
{"MOLECULE": "NC(N)=Nc1ncc(Cl)c2ccc(S(=O)(=O)NCCC(=O)O)cc12", "OPERATOR": "<", "pKi": 4.00}
{"MOLECULE": "N=C(N)c1ccc2cc(/C=C/c3ccccc3)ccc2c1", "OPERATOR": "=", "pKi": 4.46}
{"MOLECULE": "N=C(N)Nc1ncc(Br)c2ccccc12", "OPERATOR": "=", "pKi": 3.80}
{"MOLECULE": "COC(=O)Nc1ccc2c(c1)NC(=O)CC/C=C/C[C@H](N1CC[C@H](c3cccc(Cl)c3)CC1=O)c1nc-2c[nH]1", "OPERATOR": "<", "pKi": 5.21}
{"MOLECULE": "Cc1cc2cc(NC(=N/[C@H]3CCCCN(CC(=O)N4CCCC4)C3=O)/C(C#N)=C(\\O)OCCCCO)ccc2o1", "OPERATOR": "=", "pKi": 4.80}
{"MOLECULE": "CCc1cc2ccc1CCOC(=O)Nc1ccc(S(=O)(=O)C(C)C)c(c1)CN(C)C(=O)[C@@H]2Nc1cccc(C(N)=O)c1 (stereo in doubt; 14)", "OPERATOR": "<", "pKi": 5.00}

* * *

pKi: −log10 of the molar value.
Across several publications, the following pKi results were reported for Tissue-type plasminogen activator (Homo sapiens).
QUANTITY NAME: pKi

{"COMPOUND": "Cc1cc(N2CCC(N(C)C(=O)CCS(=O)(=O)c3ccc4cc(Cl)ccc4c3)CC2)ccn1", "OPERATOR": "=", "NUMBER": 4.17}
{"COMPOUND": "COc1ccc(-n2nc(C#N)c3ncn(-c4ccc(-c5ccccc5CN5CCCC5)cc4)c(=O)c32)cc1", "OPERATOR": "<", "NUMBER": 4.48}
{"COMPOUND": "OCCN1CCCCC1CCNc1nccc2oc(Cc3cc(Cl)ccc3-n3cncn3)nc12 (centres undefined)", "OPERATOR": "=", "NUMBER": 7.02}
{"COMPOUND": "NC(N)c1ccc(/C=C2\\CCCC/C(=C\\c3ccc(C(N)N)cc3)C2=O)cc1", "OPERATOR": "=", "NUMBER": 7.46}
{"COMPOUND": "NC(N)=Nc1nccc2ccccc12", "OPERATOR": "=", "NUMBER": 3.90}
{"COMPOUND": "CCS(=O)(=O)c1cc(-c2cc(C(=O)Nc3cccc(OC4CCCC4)c3)cc3ccc(C(=N)N)cc23)co1", "OPERATOR": "=", "NUMBER": 5.80}
{"COMPOUND": "CN(CC(=O)N[C@@H](CCCN=C(N)N)B(O)O)C(=O)CCc1ccccc1", "OPERATOR": "=", "NUMBER": 7.29}
{"COMPOUND": "CC(C)N(CC(=O)N[C@@H](CCCCN)B(O)O)C(=O)CCc1ccccc1", "OPERATOR": "=", "NUMBER": 5.47}
{"COMPOUND": "CC(C)CC(=O)Nc1cc(-c2ccc(C(N)=O)cc2C(=O)O)cc(C2CC(C)(c3ccccc3)c3cc(C(=N)N)ccc3N2)c1 (single isomer, unassigned; enantiomer 2)", "OPERATOR": "=", "NUMBER": 5.77}
